Data origin: the Immune Epitope Database (IEDB)

Assign Kd to each entry below.
test system: HLA-B*40:01
procedure summary: IEDB peptide-MHC binding, purified MHC/direct/fluorescence; filed as Kd, often an IC50 or EC50 that approximates it; bounds were set here for any values at or beyond the usual limits of such assays
applied conditions: source organism: Giardia lamblia ATCC 50803

Record LPVFATIGL . Reported Kd: ≥ 20 µM

Record SVKERGPAY . Reported Kd: ≥ 20 µM

Record RPRGHREFC . Reported Kd: ≥ 20 µM

###

test system: HLA-B*27:05
procedure summary: IEDB peptide-MHC binding, purified MHC/direct/fluorescence; filed as Kd, often an IC50 or EC50 that approximates it; bounds were set here for any values at or beyond the usual limits of such assays
applied conditions: source organism: Pseudomonas aeruginosa UCBPP-PA14
readout: Kd

Record ASDDLEHWQ . Reported Kd: ≥ 20 µM

###

test system: HLA-A*02:11
procedure summary: IEDB peptide-MHC binding, purified MHC/competitive/fluorescence; filed as Kd, often an IC50 or EC50 that approximates it; bounds were set here for any values at or beyond the usual limits of such assays
applied conditions: source organism: Escherichia coli
readout: Kd (nM)
Note: unit nM is implicit; provide only the numeric part.

Record MFWKLPPWL . Reported Kd: 13.6

###

test system: HLA-A*69:01
procedure summary: IEDB peptide-MHC binding, purified MHC/direct/fluorescence; filed as Kd, often an IC50 or EC50 that approximates it; bounds were set here for any values at or beyond the usual limits of such assays
applied conditions: source organism: Listeria monocytogenes
pKd: −log10 of the molar value.
readout: pKd

Record GLYEWISEQ . Reported pKd: ≤ 4.70

###

test system: HLA-A*02:03
procedure summary: IEDB peptide-MHC binding, purified MHC/competitive/fluorescence; filed as Kd, often an IC50 or EC50 that approximates it; bounds were set here for any values at or beyond the usual limits of such assays
applied conditions: source organism: Yersinia mollaretii ATCC 43969
pKd: −log10 of the molar value.
readout: pKd

Record MMWIPGWFG . Reported pKd: ≤ 4.70

###

test system: HLA-A*68:02
procedure summary: IEDB peptide-MHC binding, purified MHC/competitive/radioactivity; filed as Kd, often an IC50 or EC50 that approximates it; bounds were set here for any values at or beyond the usual limits of such assays
applied conditions: source organism: Dengue virus 4 Philippines/H241/1956
Assign Kd to each entry below.
The reply should read as a number followed by its unit.

Record EVALLRTYCI . Reported Kd: 29.7 nM

Record TIAVSTANI . Reported Kd: 25.6 nM

Record HTIENTSANL . Reported Kd: 15 nM

Record TTPFGQQRV . Reported Kd: 102 nM

###

test system: HLA-C*06:02
procedure summary: IEDB peptide-MHC binding, purified MHC/direct/fluorescence; filed as Kd, often an IC50 or EC50 that approximates it; bounds were set here for any values at or beyond the usual limits of such assays
applied conditions: source organism: Yersinia pestis Nepal516
readout: Kd

Form: item RIYSHIAPY ; test system HLA-C*06:02; Kd: ≥ 20 µM

###

test system: HLA-A*02:19
procedure summary: IEDB peptide-MHC binding, purified MHC/direct/fluorescence; filed as Kd, often an IC50 or EC50 that approximates it; bounds were set here for any values at or beyond the usual limits of such assays
applied conditions: source organism: Brucella ovis ATCC 25840
pKd: −log10 of the molar value.
readout: pKd

Record CTDPPLLSV . Reported pKd: ≤ 4.70

###

test system: HLA-A*69:01
procedure summary: IEDB peptide-MHC binding, purified MHC/competitive/fluorescence; filed as Kd, often an IC50 or EC50 that approximates it; bounds were set here for any values at or beyond the usual limits of such assays
applied conditions: source organism: Lechiguanas virus
readout: Kd

Record HTQAIEGAW . Reported Kd: ≥ 20 µM

###

test system: HLA-B*27:03
procedure summary: IEDB peptide-MHC binding, purified MHC/competitive/fluorescence; filed as Kd, often an IC50 or EC50 that approximates it; bounds were set here for any values at or beyond the usual limits of such assays
applied conditions: source organism: Orthohantavirus andesense
readout: Kd

Form: item STGKSIKFK ; test system HLA-B*27:03; Kd: ≥ 20 µM

Form: item RWASGVSEI ; test system HLA-B*27:03; Kd: ≥ 20 µM

###

test system: HLA-A*80:01
procedure summary: IEDB peptide-MHC binding, purified MHC/direct/fluorescence; filed as Kd, often an IC50 or EC50 that approximates it; bounds were set here for any values at or beyond the usual limits of such assays
applied conditions: source organism: Rickettsia typhi
readout: Kd (µM)
Note: unit µM is implicit; provide only the numeric part.

Record ELYPTVNTY . Reported Kd: 4.5

###

test system: HLA-A*02:03
procedure summary: IEDB peptide-MHC binding, purified MHC/competitive/fluorescence; filed as Kd, often an IC50 or EC50 that approximates it; bounds were set here for any values at or beyond the usual limits of such assays
applied conditions: source organism: Mycobacterium tuberculosis variant bovis BCG str. Pasteur 1173P2
pKd: −log10 of the molar value.
readout: pKd

Form: item AEDLADHHV ; test system HLA-A*02:03; pKd: ≤ 4.70

###

test system: HLA-B*44:03
procedure summary: IEDB peptide-MHC binding, purified MHC/competitive/radioactivity; filed as Kd, often an IC50 or EC50 that approximates it; bounds were set here for any values at or beyond the usual limits of such assays
applied conditions: source organism: Mammarenavirus whitewaterense
pKd: −log10 of the molar value.
readout: pKd

Record LDIQKCGEL . Reported pKd: ≤ 4.11

###

test system: HLA-C*05:01
procedure summary: IEDB peptide-MHC binding, purified MHC/direct/fluorescence; filed as Kd, often an IC50 or EC50 that approximates it; bounds were set here for any values at or beyond the usual limits of such assays
applied conditions: source organism: West Nile virus
readout: Kd (µM)
Note: unit µM is implicit; provide only the numeric part.

Record FLAVGGVLL . Reported Kd: 4.18

###

test system: HLA-A*26:02
procedure summary: IEDB peptide-MHC binding, purified MHC/competitive/fluorescence; filed as Kd, often an IC50 or EC50 that approximates it; bounds were set here for any values at or beyond the usual limits of such assays
applied conditions: source organism: Escherichia coli 536
pKd: −log10 of the molar value.
readout: pKd

Record KLYPNVDFY . Reported pKd: ≤ 4.70

###

test system: HLA-A*02:17
procedure summary: IEDB peptide-MHC binding, purified MHC/competitive/radioactivity; filed as Kd, often an IC50 or EC50 that approximates it; bounds were set here for any values at or beyond the usual limits of such assays
applied conditions: source organism: Dengue virus 3 China/80-2/1980
readout: Kd (µM)
Note: unit µM is implicit; provide only the numeric part.

Record LLLGLMILL . Reported Kd: 0.11

###

test system: HLA-B*07:02
procedure summary: IEDB peptide-MHC binding, purified MHC/competitive/fluorescence; bounds were set here for any values at or beyond the usual limits of such assays
applied conditions: source organism: Variola virus
Assign IC50 to each entry below.

Record RVGRVNPGT . Reported IC50: 21.4 µM

Record IPLASLTPK . Reported IC50: 5.73 µM

###

test system: HLA-B*40:01
procedure summary: IEDB peptide-MHC binding, purified MHC/competitive/radioactivity; filed as Kd, often an IC50 or EC50 that approximates it; bounds were set here for any values at or beyond the usual limits of such assays
applied conditions: source organism: Mammarenavirus whitewaterense
pKd: −log10 of the molar value.
readout: pKd

Record LDIQKCGEL . Reported pKd: ≤ 4.33

###

Assign pKd to each entry below.
test system: HLA-A*31:01
procedure summary: IEDB peptide-MHC binding, purified MHC/competitive/radioactivity; filed as Kd, often an IC50 or EC50 that approximates it; bounds were set here for any values at or beyond the usual limits of such assays
applied conditions: source organism: Dengue virus 2 Jamaica/1409/1983
As a rule, pKd stands for the negative log10 of the concentration, concentration in M.

Record YMPSMKRFRR . Reported pKd: 7.99

Record GMMVLKIVR . Reported pKd: 7.95

###

test system: HLA-B*54:01
procedure summary: IEDB peptide-MHC binding, purified MHC/competitive/radioactivity; filed as Kd, often an IC50 or EC50 that approximates it; bounds were set here for any values at or beyond the usual limits of such assays
applied conditions: source organism: Triticum aestivum
readout: Kd

Record QPQLPYPQPQL . Reported Kd: ≥ 63.7 µM

###

test system: HLA-A*02:03
procedure summary: IEDB peptide-MHC binding, purified MHC/competitive/radioactivity; filed as Kd, often an IC50 or EC50 that approximates it; bounds were set here for any values at or beyond the usual limits of such assays
applied conditions: source organism: Vaccinia virus WR
readout: pKd
As a rule, pKd stands for the negative log10 of the concentration, concentration in M.

Record HVLLPFYET . Reported pKd: 4.73

Record KTPLYYLSGT . Reported pKd: 5.51

Record NIDSIMSMM . Reported pKd: 6.06

Record LMLHNPTSET . Reported pKd: 5.35

Record ILQMREIIT . Reported pKd: 5.87

Record HVLLPFYETL . Reported pKd: 6.67

Record SLEATFIDV . Reported pKd: 7.09

Record LLNVQTLISL . Reported pKd: 7.79

Record KIKQTGINNV . Reported pKd: 8.51

Record LISLINSLV . Reported pKd: 9.32
